Molecular target: Serine/threonine-protein phosphatase 5 (Homo sapiens) (UniProt P53041)
Sequence (P53041 whole entry, looked up): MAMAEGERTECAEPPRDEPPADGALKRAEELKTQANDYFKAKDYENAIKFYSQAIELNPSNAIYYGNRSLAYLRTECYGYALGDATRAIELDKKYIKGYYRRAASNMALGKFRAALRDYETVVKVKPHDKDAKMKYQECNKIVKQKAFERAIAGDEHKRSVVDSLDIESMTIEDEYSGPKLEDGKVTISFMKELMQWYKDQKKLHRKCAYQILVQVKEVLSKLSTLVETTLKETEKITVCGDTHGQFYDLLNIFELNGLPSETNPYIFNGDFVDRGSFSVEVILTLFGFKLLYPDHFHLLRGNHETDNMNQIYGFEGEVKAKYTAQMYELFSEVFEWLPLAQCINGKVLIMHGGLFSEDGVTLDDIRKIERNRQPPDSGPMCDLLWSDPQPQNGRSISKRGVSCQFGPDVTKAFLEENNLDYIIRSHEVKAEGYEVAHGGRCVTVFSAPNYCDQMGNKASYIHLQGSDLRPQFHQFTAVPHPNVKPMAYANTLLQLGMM
Experiment: PP5c phosphatase inhibition potency – biochemical, fluorescence, round 5, 3.8 nM low dose, dose response (AID 624433)
Settings: purified PP5c, OMFP dephosphorylation
Active and inactive are the calls of the source.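 How the source made its calls: active means compounds whose fitted IC50 falls under 25000 nM; inactive means the rest.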
Could you please pick one outcome from this set? active, inactive

Some entries whose results are on file:
- Input smiles: "CC(C)Oc1ccccc1-c1n[nH]nc1C(=O)O"
  Target or test system: "Serine/threonine-protein phosphatase 5 (Homo sapiens) (UniProt P53041)"
  Label: "active"
- Input smiles: "O=C(O)c1n[nH]nc1-c1ccccn1"
  Target or test system: "Serine/threonine-protein phosphatase 5 (Homo sapiens) (UniProt P53041)"
  Label: "inactive"
- Input smiles: "O=C(O)c1n[nH]nc1-c1ccccc1-c1ccccc1"
  Target or test system: "Serine/threonine-protein phosphatase 5 (Homo sapiens) (UniProt P53041)"
  Label: "inactive"
- Input smiles: "CC(C)c1ccccc1-c1n[nH]nc1C(=O)O"
  Target or test system: "Serine/threonine-protein phosphatase 5 (Homo sapiens) (UniProt P53041)"
  Label: "inactive"
- Input smiles: "CCc1ccccc1-c1n[nH]nc1C(=O)O"
  Target or test system: "Serine/threonine-protein phosphatase 5 (Homo sapiens) (UniProt P53041)"
  Label: "active"

Exam item: // return assay outcome for "Cc1ccccc1-c1n[nH]nc1C(=O)O"
Marked response: active

Exam item: // return assay outcome for "CCOc1ccccc1-c1n[nH]nc1C(=O)O"
Marked response: active
